Hello, the source for this data is paper PMC8421216, in case you need it.

# measured-target: T1, Brat-NHL (Drosophila melanogaster, UniProt Q8MQJ9 756-1037)
# T1 sequence: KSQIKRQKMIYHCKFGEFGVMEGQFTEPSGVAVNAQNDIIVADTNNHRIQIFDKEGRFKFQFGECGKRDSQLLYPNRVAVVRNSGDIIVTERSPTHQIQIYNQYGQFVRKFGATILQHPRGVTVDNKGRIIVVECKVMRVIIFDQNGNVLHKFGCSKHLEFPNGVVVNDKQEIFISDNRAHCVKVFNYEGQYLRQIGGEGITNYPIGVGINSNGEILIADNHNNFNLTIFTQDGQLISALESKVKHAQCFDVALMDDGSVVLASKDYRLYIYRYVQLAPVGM
# method-summary: ITC
quantity-kind: Kd (µM)
Unit µM implied. Number only.

The recorded Kd for UUGUUGUCGAAAAUUGUACAUAA (structured_RNA) [NRE2 (23-mer)] is 1.4
